# System: passive cutaneous anaphylaxis (PCA)
# ASSAY REMARKS: anti-allergic action, passive cutaneous anaphylaxis (PCA) model in rats
# Assay type: in vivo
# TEST PARAMETERS: Rattus norvegicus; rats, oral; dose which reduces diameter of color patch by 50% vs non-medicated controls; read-out: Inhibition of PCA in rats (oral), ED 50%
RECORDED ENDPOINT: ED50 (mg/kg)
Numeric only. Scale: mg/kg

Lab book: ED50 of CCOCCOC(=O)C(=O)Nc1nc(-c2ccccc2)cs1 [Example 9] noted as 0.0382

Lab book: ED50 of CCOC(=O)C(=O)Nc1nc(-c2ccccc2)cs1 [Example V1, ethyl N-(4-phenyl-thiazol-2-yl)-oxamate, reference compound] noted as 8.67

Lab book: ED50 of COCCOCCOC(=O)C(=O)Nc1nc(-c2ccccc2)cs1 [Example 11] noted as 2.16

---

# ASSAY REMARKS: acute toxicity (LD 50), mice, intraperitoneal
# TEST PARAMETERS: mouse, in vivo, ip, NMRI mice, 14 days post-observation
# Experimental: In addition to the anti-allergic action, the acute toxicity was determined for intraperitoneal administration, using groups of 2 NMRI mice, each weighing 20-26 g, and for oral administration, using groups of 2 Sprague-Dawley rats, each weighing 120-150 g. The LD 50 was determined on groups of 10 NMRI mice, each weighing 20-26 g, after intraperitoneal administration. The post-observation period was 14 days.
RECORDED ENDPOINT: LD50 at 336 h (mg/kg)
Numeric only. Scale: mg/kg

# annotated cases, reported LD50 at 336 h shown
COCCOC(=O)C(=O)Nc1nc(-c2ccccc2)cs1 [Example 7] = 655
COCCOCCOC(=O)C(=O)Nc1nc(-c2ccccc2)cs1 [Example 11] = 705

Lab book: LD50 at 336 h of CCOCCOC(=O)C(=O)Nc1nc(-c2ccccc2)cs1 [Example 9] noted as 956

---

# Tested on: passive cutaneous anaphylaxis (PCA)
# ASSAY REMARKS: anti-allergic action, passive cutaneous anaphylaxis (PCA) model in rats
# Format: in vivo
# TEST PARAMETERS: Rattus norvegicus; rats, oral; dose which reduces diameter of color patch by 50% vs non-medicated controls; read-out: Inhibition of PCA in rats (oral), ED 50%
Catalogue of ED50 readings, one per entry.
Numeric only. Scale: mg/kg

# annotated cases, reported ED50 shown
O=C(O)c1cc(=O)c2c(OCC(O)COc3cccc4oc(C(=O)O)cc(=O)c34)cccc2o1 [Cromolyne, reference compound] = 100
COCCOC(=O)C(=O)Nc1nc(-c2ccccc2)cs1 [Example 7] = 2.24

Pending compound:
Fill in: passive cutaneous anaphylaxis (PCA) ED50 for CCOCCOC(=O)C(=O)Nc1nc(-c2ccc(OC)cc2)cs1 [Example 14] = 0.619
